Below is a list of entries, each paired with its recorded Population Pyknosed Nuclei (%) value.
# Tested on: HEK-293T
# assayComment: Multiplex assay against HEK293T
# Assay type: toxicity, cell-based
# experimentalSetup: human, 48 h, 10 µM, compound concentration 10 uM, replicate 1
Note: unit % is implicit; provide only the numeric part.

The following compounds have reported results that may help.
# input Please report the recorded Population Pyknosed Nuclei (%) for `CCc1ccc(OCc2ccccc2C(=O)Nc2ccc3nc(C)cc(N)c3c2)cc1.Cl` .
# output 79

# input Also, CC1=C(C(=O)Nc2cc3cn[nH]c3cc2F)C(c2ccc(C(F)(F)F)cc2)CC(=O)N1 (stereo not drawn) please.
# output 33

New cases:
# input Given the entry `CNC(=O)Nc1ccc(-c2nc(N3CC4CCC(C3)O4)c3cnn(C4CCC5(CC4)OCCO5)c3n2)cc1` , report its measured Population Pyknosed Nuclei (%).
# output 56

# input Query Cc1cccc(CN2CCN(C(c3ccccc3)c3ccc(Cl)cc3)CC2)c1.Cl.Cl (stereo not drawn) next
# output 31

# input What do you have for COc1ccccc1CN[C@H]1C2CCN(CC2)[C@H]1C(c1ccccc1)c1ccccc1 [CP-96345] ?
# output 28

# input How about this compound: `Cl.O=C(O)c1cc(-c2ccc(C3CCNCC3)cc2)c2ccc(-c3ccc(C(F)(F)F)cc3)cc2c1`
# output 58

# input Another compound: CC(C)c1noc(N2CCC(COc3ccc(-c4ccc(S(C)(=O)=O)cc4)nc3)CC2)n1 [GSK-1292263]
# output 64

# input Try this compound too: COc1cc2ncn(-c3cc(OCc4ccccc4C(F)(F)F)c(C(N)=O)s3)c2cc1OC [GW843682X]
# output 34

====

Property: Population Membrane Permeable-Phenotype (%); scope: individual compounds
# Test system: U2OS
# assayComment: Multiplex assay against U2OS
# Type: toxicity, cell-based
# experimentalSetup: human, 48 h, 10 µM, compound concentration 10 uM, replicate 2
# unit: % | format: bare number

# input Record request: Population Membrane Permeable-Phenotype (%) value, item `CCc1ccc(OCc2ccccc2C(=O)Nc2ccc3nc(C)cc(N)c3c2)cc1.Cl`
# output 60

# input Also, CCc1nn(CCCN2CCN(c3cccc(Cl)c3)CC2)c(=O)n1CCOc1ccccc1.Cl [NEFAZODONE HYDROCHLORIDE] please.
# output 85

# input Thanks! And `CC(C)(C)NC[C@H](O)COc1nsnc1N1CCOCC1` ?
# output 4

Others:
# input Which measured Population Membrane Permeable-Phenotype (%) value corresponds to `CC(C)c1noc(N2CCC(COc3ccc(-c4ccc(S(C)(=O)=O)cc4)nc3)CC2)n1` ?
# output 6

# input Subsequent entry: `COc1ccccc1CN[C@H]1C2CCN(CC2)[C@H]1C(c1ccccc1)c1ccccc1`
# output 6

# input Also, COc1cc2ncn(-c3cc(OCc4ccccc4C(F)(F)F)c(C(N)=O)s3)c2cc1OC [GW843682X] please.
# output 68

# input # repeat for Cc1cccc(CN2CCN(C(c3ccccc3)c3ccc(Cl)cc3)CC2)c1.Cl.Cl (centres undefined)
# output 7

# input Here is the next compound: `CC(C)NC(=O)N1CC[C@H](NC2=Nc3cc(F)ccc3N(CC(F)F)c3ccc(Cl)cc32)C1`
# output 41

# input Also, `O=c1cc(N2CCOCC2)oc2c(-c3cccc4c3sc3ccccc34)cccc12` please.
# output 50

Taken from ChEMBL document CHEMBL4689842.
